Test: Particle size of jet milled ZGN-440
Format: physicochemical
Details: after jet milling
Documented D50 across a set of compounds
Endpoint name: D50 (µm)

{"Compound": "CO[C@@H]1[C@H](OC(=O)/C=C/c2ccc(OCCN(C)C)cc2)CC[C@]2(CO2)[C@H]1[C@@]1(C)O[C@@H]1CC=C(C)C [FPS/5]", "Number": 6.1}
{"Compound": "CO[C@@H]1[C@H](OC(=O)/C=C/c2ccc(OCCN(C)C)cc2)CC[C@]2(CO2)[C@H]1[C@@]1(C)O[C@@H]1CC=C(C)C [FPS/3]", "Number": 3.9}
{"Compound": "CO[C@@H]1[C@H](OC(=O)/C=C/c2ccc(OCCN(C)C)cc2)CC[C@]2(CO2)[C@H]1[C@@]1(C)O[C@@H]1CC=C(C)C [FPS/4]", "Number": 6.5}

###

Assay: Particle size of jet milled ZGN-440
Format: physicochemical
Settings: after jet milling
Experimental: Jet milling was conducted with ZGN-440 having an initial D90 of 211.9 μm prior to jet milling. For FPS5, jet milled ZGN-440 was recovered in greater than 90% yield. […] The particle size generated is suitable for use with a 29-gauge to 31-gauge needle.

{"Molecule": "CO[C@@H]1[C@H](OC(=O)/C=C/c2ccc(OCCN(C)C)cc2)CC[C@]2(CO2)[C@H]1[C@@]1(C)O[C@@H]1CC=C(C)C [NAT]", "Display unit": "µm", "D50": 9.4}
{"Molecule": "CO[C@@H]1[C@H](OC(=O)/C=C/c2ccc(OCCN(C)C)cc2)CC[C@]2(CO2)[C@H]1[C@@]1(C)O[C@@H]1CC=C(C)C [FPS/2]", "Display unit": "µm", "D50": 3}
{"Molecule": "CO[C@@H]1[C@H](OC(=O)/C=C/c2ccc(OCCN(C)C)cc2)CC[C@]2(CO2)[C@H]1[C@@]1(C)O[C@@H]1CC=C(C)C [FPS/1]", "Display unit": "µm", "D50": 2.4}
